B1: UFD1L (parent)
chain: EAGGRFVAFSGEGQSLRKKGRKP

Variants of: B1
Assay: protein stability index of a GFP-peptide fusion (GPS, HEK-293T) (PSI 1-6); higher = more stable;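 also: lentivirally expressed fusions sorted by FACS into six bins by GFP to DsRed ratio, PSI derived from sequencing read proportions per bin multiplied by bin number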
Conditions: c terminus: native
Each record gets a class by protein stability index: lower range (below 2), middle range (2 to below 3), upper range (3 or more)

[[record]]
variant_name = "S15V"
class_label = "lower range"

[[record]]
variant_name = "G4D"
class_label = "middle range"

[[record]]
variant_name = "A8H"
class_label = "lower range"

[[record]]
variant_name = "G20H"
class_label = "upper range"

[[record]]
variant_name = "A8Q"
class_label = "middle range"

[[record]]
variant_name = "F9H"
class_label = "lower range"

[[record]]
variant_name = "P23I"
class_label = "upper range"

[[record]]
variant_name = "F6P"
class_label = "upper range"

[[record]]
variant_name = "S10I"
class_label = "lower range"

[[record]]
variant_name = "G3S"
class_label = "lower range"

[[record]]
variant_name = "A2N"
class_label = "lower range"

[[record]]
variant_name = "R21P"
class_label = "upper range"

[[record]]
variant_name = "R5I"
class_label = "lower range"

[[record]]
variant_name = "R21Q"
class_label = "upper range"

[[record]]
variant_name = "G3W"
class_label = "lower range"

[[record]]
variant_name = "R17M"
class_label = "middle range"

[[record]]
variant_name = "G13S"
class_label = "lower range"

[[record]]
variant_name = "P23L"
class_label = "upper range"

[[record]]
variant_name = "P23N"
class_label = "middle range"

[[record]]
variant_name = "F9E"
class_label = "upper range"

[[record]]
variant_name = "R21V"
class_label = "upper range"

